Data credit: ChEMBL document CHEMBL1156459

target: Parathyroid hormone/parathyroid hormone-related peptide receptor (Homo sapiens, UniProt Q03431); assay: Activity at human PTH/PTH-related peptide receptor expressed in SAOS2 cells assessed as cAMP formation; type: functional, cell-based, SAOS-2
Sequence (Q03431 whole entry): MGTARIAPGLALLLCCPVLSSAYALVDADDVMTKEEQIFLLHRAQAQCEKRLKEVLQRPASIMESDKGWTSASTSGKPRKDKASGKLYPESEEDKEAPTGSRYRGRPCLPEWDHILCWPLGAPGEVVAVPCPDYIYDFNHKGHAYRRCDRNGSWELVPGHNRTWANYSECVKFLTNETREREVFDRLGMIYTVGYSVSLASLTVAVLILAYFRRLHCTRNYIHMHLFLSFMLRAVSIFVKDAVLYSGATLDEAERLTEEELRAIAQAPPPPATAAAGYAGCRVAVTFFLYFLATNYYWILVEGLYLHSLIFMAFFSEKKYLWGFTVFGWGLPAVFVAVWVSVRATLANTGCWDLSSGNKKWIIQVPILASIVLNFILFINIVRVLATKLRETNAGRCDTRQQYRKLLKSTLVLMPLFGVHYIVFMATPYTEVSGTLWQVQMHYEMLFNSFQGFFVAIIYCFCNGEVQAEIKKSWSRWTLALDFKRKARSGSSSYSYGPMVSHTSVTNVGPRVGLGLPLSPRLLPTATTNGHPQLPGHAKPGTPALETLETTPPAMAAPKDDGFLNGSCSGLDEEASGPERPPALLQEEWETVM
Square brackets hold non-standard residues; d marks the D form. Peptide text beside a SMILES is read from it. * marks the point of attachment. X1 = O=C(c1ccccc1-c1c2ccc(=O)cc-2oc2cc(O)ccc12)*; hArg = N=C(N)NCCCC[C@H](N)C(=O)O; Nle = CCCC[C@H](N)C(=O)O; Aib = CC(C)(N)C(=O)O

COMPOUND | EC50
CC[C@H](C)[C@H](NC(=O)[C@H](CCC(=O)O)NC(=O)[C@H](C)NC(=O)[C@@H](NC(=O)[C@H](C)N)C(C)C)C(=O)N[C@@H](CCC(N)=O)C(=O)N[C@@H](CC(C)C)C(=O)N[C@@H](CCSC)C(=O)N[C@@H](Cc1cnc[nH]1)C(=O)N[C@@H](CCC(N)=O)C(=O)N[C@@H](CCCCN=C(N)N)C(=O)N[C@@H](C)C(=O)N[C@@H](CCCCN)C(=O)N[C@@H](Cc1c[nH]c2ccccc12)C(N)=O (H-AVAEIQLMHQ[hArg]AKW-NH2) | 800 nM
CCCC[C@H](NC(=O)[C@H](CC(C)C)NC(=O)[C@H](CCC(N)=O)NC(=O)[C@@H](NC(=O)[C@H](CCC(=O)O)NC(=O)C(C)(C)NC(=O)[C@@H](NC(=O)C(C)(C)N)C(C)C)[C@@H](C)CC)C(=O)N[C@@H](Cc1cnc[nH]1)C(=O)N[C@@H](CCC(N)=O)C(=O)N[C@@H](CCCNC(=N)N)C(=O)N[C@@H](C)C(=O)N[C@@H](CCCCN)C(=O)N[C@@H](Cc1ccc(O)cc1)C(N)=O (H-[Aib]V[Aib]EIQL[Nle]HQRAKY-NH2) | 2.2 nM
CCCC[C@H](NC(=O)[C@H](CC(C)C)NC(=O)[C@H](CCC(N)=O)NC(=O)[C@@H](NC(=O)[C@H](CCC(=O)O)NC(=O)[C@H](C)NC(=O)[C@@H](NC(=O)[C@H](C)N)C(C)C)[C@@H](C)CC)C(=O)N[C@@H](Cc1cnc[nH]1)C(=O)N[C@@H](CCC(N)=O)C(=O)N[C@@H](CCCCNC(=N)N)C(=O)N[C@@H](C)C(=O)N[C@@H](CCCCN)C(=O)N[C@@H](Cc1ccc(O)cc1)C(N)=O (H-AVAEIQL[Nle]HQ[hArg]AKY-NH2) | 1430 nM
CCCC[C@H](NC(=O)[C@H](CC(C)C)NC(=O)[C@H](CCC(N)=O)NC(=O)[C@@H](NC(=O)[C@H](CCC(=O)O)NC(=O)C(C)(C)NC(=O)[C@@H](NC(=O)C(C)(C)N)C(C)C)[C@@H](C)CC)C(=O)N[C@@H](Cc1cnc[nH]1)C(=O)N[C@@H](CCC(N)=O)C(=O)N[C@@H](CCCNC(=N)N)C(=O)N[C@@H](C)C(=O)N[C@@H](CCCCNC(=O)c1ccccc1-c1c2ccc(=O)cc-2oc2cc(O)ccc12)C(=O)N[C@@H](Cc1ccc(O)cc1)C(N)=O (H-[Aib]V[Aib]EIQL[Nle]HQRAK(X1)Y-NH2) | 7.2 nM
CC[C@H](C)[C@H](NC(=O)[C@H](CCC(=O)O)NC(=O)[C@H](C)NC(=O)[C@@H](NC(=O)[C@H](C)N)C(C)C)C(=O)N[C@@H](CCC(N)=O)C(=O)N[C@@H](CC(C)C)C(=O)N[C@@H](CCSC)C(=O)N[C@@H](Cc1cnc[nH]1)C(=O)N[C@@H](CCC(N)=O)C(=O)N[C@@H](CCCCNC(=N)N)C(=O)N[C@@H](C)C(=O)N[C@@H](CCCCN)C(=O)N[C@@H](Cc1c[nH]c2ccccc12)C(=O)N[C@@H](CCCCNC(=O)c1ccccc1-c1c2ccc(=O)cc-2oc2cc(O)ccc12)C(N)=O (H-AVAEIQLMHQ[hArg]AKWK(X1)-NH2) | 1000 nM
CCCC[C@H](NC(=O)[C@H](CC(C)C)NC(=O)[C@H](CCC(N)=O)NC(=O)[C@@H](NC(=O)[C@H](CCC(=O)O)NC(=O)C(C)(C)NC(=O)[C@@H](NC(=O)C(C)(C)N)C(C)C)[C@@H](C)CC)C(=O)N[C@@H](Cc1cnc[nH]1)C(=O)N[C@@H](CCC(N)=O)C(=O)N[C@@H](CCCN=C(N)N)C(=O)N[C@@H](C)C(=O)N[C@@H](CCCCN)C(=O)N[C@@H](Cc1ccc(O)cc1)C(=O)N[C@@H](CCCCNC(=O)c1ccccc1-c1c2ccc(=O)cc-2oc2cc(O)ccc12)C(N)=O (H-[Aib]V[Aib]EIQL[Nle]HQRAKYK(X1)-NH2) | 20 nM

----------
test: Stability in rat plasma assessed as half life; type: ADME, cell-free
Square brackets hold non-standard residues; d marks the D form. Peptide text beside a SMILES is read from it. Nle = CCCC[C@H](N)C(=O)O; Aib = CC(C)(N)C(=O)O
READOUT TYPE: half-life (min)

COMPOUND | READOUT TYPE | U | RESULT VALUE
CCCC[C@H](NC(=O)[C@H](CC(C)C)NC(=O)[C@H](CCC(N)=O)NC(=O)[C@@H](NC(=O)[C@H](CCC(=O)O)NC(=O)C(C)(C)NC(=O)[C@@H](NC(=O)C(C)(C)N)C(C)C)[C@@H](C)CC)C(=O)N[C@@H](Cc1cnc[nH]1)C(=O)N[C@@H](CCC(N)=O)C(=O)N[C@@H](CCCNC(=N)N)C(=O)N[C@@H](C)C(=O)N[C@@H](CCCCN)C(=O)N[C@@H](Cc1ccc(O)cc1)C(N)=O (H-[Aib]V[Aib]EIQL[Nle]HQRAKY-NH2) | half-life | min | 20

----------
target: Parathyroid hormone/parathyroid hormone-related peptide receptor (Homo sapiens); assay: Activity at human PTH/PTH-related peptide receptor expressed in HEK293 cells assessed as induction of luciferase activity by CRE-luciferase reporter assay; type: functional, cell-based
Square brackets hold non-standard residues; d marks the D form. Peptide text beside a SMILES is read from it. * marks the point of attachment. X1 = O=C(c1ccccc1-c1c2ccc(=O)cc-2oc2cc(O)ccc12)*; hArg = N=C(N)NCCCC[C@H](N)C(=O)O; Nle = CCCC[C@H](N)C(=O)O; Aib = CC(C)(N)C(=O)O
Values of EC50 strictly less than 1 nM map to True, and values of at least 1 nM map to False.

MOLECULE | ASSIGNED LABEL
CCCC[C@H](NC(=O)[C@H](CC(C)C)NC(=O)[C@H](CCC(N)=O)NC(=O)[C@@H](NC(=O)[C@H](CCC(=O)O)NC(=O)C(C)(C)NC(=O)[C@@H](NC(=O)C(C)(C)N)C(C)C)[C@@H](C)CC)C(=O)N[C@@H](Cc1cnc[nH]1)C(=O)N[C@@H](CCC(N)=O)C(=O)N[C@@H](CCCCN=C(N)N)C(=O)N[C@@H](C)C(=O)N[C@@H](CCCCN)C(=O)N[C@@H](Cc1ccc(O)cc1)C(N)=O (H-[Aib]V[Aib]EIQL[Nle]HQ[hArg]AKY-NH2) | True
CC[C@H](C)[C@H](NC(=O)[C@H](CCC(=O)O)NC(=O)[C@H](C)NC(=O)[C@@H](NC(=O)[C@H](C)N)C(C)C)C(=O)N[C@@H](CCC(N)=O)C(=O)N[C@@H](CC(C)C)C(=O)N[C@@H](CCSC)C(=O)N[C@@H](Cc1cnc[nH]1)C(=O)N[C@@H](CCC(N)=O)C(=O)N[C@@H](CCCCN=C(N)N)C(=O)N[C@@H](C)C(=O)N[C@@H](CCCCN)C(=O)N[C@@H](Cc1c[nH]c2ccccc12)C(N)=O (H-AVAEIQLMHQ[hArg]AKW-NH2) | False
CCCC[C@H](NC(=O)[C@H](CC(C)C)NC(=O)[C@H](CCC(N)=O)NC(=O)[C@@H](NC(=O)[C@H](CCC(=O)O)NC(=O)C(C)(C)NC(=O)[C@@H](NC(=O)C(C)(C)N)C(C)C)[C@@H](C)CC)C(=O)N[C@@H](Cc1cnc[nH]1)C(=O)N[C@@H](CCC(N)=O)C(=O)N[C@@H](CCCN=C(N)N)C(=O)N[C@@H](C)C(=O)N[C@@H](CCCCN)C(=O)N[C@@H](Cc1ccc(O)cc1)C(=O)N[C@@H](CCCCNC(=O)c1ccccc1-c1c2ccc(=O)cc-2oc2cc(O)ccc12)C(N)=O (H-[Aib]V[Aib]EIQL[Nle]HQRAKYK(X1)-NH2) | False
CCCC[C@H](NC(=O)[C@H](CC(C)C)NC(=O)[C@H](CCC(N)=O)NC(=O)[C@@H](NC(=O)[C@H](CCC(=O)O)NC(=O)C(C)(C)NC(=O)[C@@H](NC(=O)C(C)(C)N)C(C)C)[C@@H](C)CC)C(=O)N[C@@H](Cc1cnc[nH]1)C(=O)N[C@@H](CCC(N)=O)C(=O)N[C@@H](CCCNC(=N)N)C(=O)N[C@@H](C)C(=O)N[C@@H](CCCCNC(=O)c1ccccc1-c1c2ccc(=O)cc-2oc2cc(O)ccc12)C(=O)N[C@@H](Cc1ccc(O)cc1)C(N)=O (H-[Aib]V[Aib]EIQL[Nle]HQRAK(X1)Y-NH2) | True
CCCC[C@H](NC(=O)[C@H](CC(C)C)NC(=O)[C@H](CCC(N)=O)NC(=O)[C@@H](NC(=O)[C@H](CCC(=O)O)NC(=O)C(C)(C)NC(=O)[C@@H](NC(=O)C(C)(C)N)C(C)C)[C@@H](C)CC)C(=O)N[C@@H](Cc1cnc[nH]1)C(=O)N[C@@H](CCC(N)=O)C(=O)N[C@@H](CCCNC(=N)N)C(=O)N[C@@H](C)C(=O)N[C@@H](CCCCN)C(=O)N[C@@H](Cc1ccc(O)cc1)C(N)=O (H-[Aib]V[Aib]EIQL[Nle]HQRAKY-NH2) | True
